- run-description: Phase 1 clinical trial, Part I single ascending doses, plasma pharmacokinetics
- Format: in vivo, human (healthy male volunteers)
- condition-notes: male, human, plasma; single oral dose 40 mg, geom. mean; read-out: t1/2, z (converted)

# structure-as-smiles, unit-text, half-life
data = [
    ("COc1ccc2c(c1)CN(Cc1ccc(C(=O)O)cc1)CCS2.O=C(O)/C=C/C(=O)O", "h", 20.9),
]

====

- run-description: Phase 1b study in RYR1-Related Myopathy patients, plasma pharmacokinetics
- Assay type: in vivo, human (RYR1-Related Myopathy patients)
- condition-notes: human, plasma, po, 200 mg, single oral 200 mg, three subjects, time 2 hr
outcome-measure: concentration at 2 h (ng/mL)

# structure-as-smiles, value-measured
measured = [
    ("COc1ccc2c(c1)CN(Cc1ccc(C(=O)O)cc1)CCS2.O=C(O)/C=C/C(=O)O", 176),
]
